assayedTarget: T1, recombinant canine OX40L ECD-TNCc-HIS protein (canine)
T1 construct: also called Trimeric OX40L probe (HIS tag); trimeric canine OX40L
T1 chain: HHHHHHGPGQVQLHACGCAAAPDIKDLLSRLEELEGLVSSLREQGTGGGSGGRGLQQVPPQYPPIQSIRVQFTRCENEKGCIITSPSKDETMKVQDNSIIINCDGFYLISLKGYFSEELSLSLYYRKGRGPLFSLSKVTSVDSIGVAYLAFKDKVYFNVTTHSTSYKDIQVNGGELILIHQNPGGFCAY
testMethodNotes: SPR Koff (kd1)
Please provide measured koff for the entries that follow.
Please report the result as a number followed by the unit.

• PMX034 (antibody, V domains shown, also called PMX34) VH: EVQLVESGGDLVKPGGSLRLSCVASGFTFSNYHMSWVRQAPGKGLQWVAYIVSGGSSTTYADAVKGRFTISRDNAKNTLYLQMTSLRAEDTAVYYCASDLVLLVGGADYWGQGTLVTVSS VL: SYELTQPPSVNVTLRETAHITCGGDSIGSKYVQWIQQNPGQAPVVIIYKDSNRPTGIPERFSGANSGNTATLTISGALAEDEADYYCQVGDSGTKAVFGGGTHLTVL = 0.135 s⁻¹

--- query ---
Problem: Look at this binder and give its reported koff. PMX059 (antibody, V domains shown, also called PMX59) VH: EVHLVESGGDLVKPEGSLRLSCVVSGFTFSNYVMNWVRQAPGKGLQWVAFISGDGRSTTYTDAVKSRFTISRDNAKNTLYLQMSSLRTEDTAIYFCAKEKYSSGWSFEYWGQGTLVTVSS VL: SYVLTQLPSKNVTLKQPAHITCGGDNIGSKSVHWYQQKLGQAPVLIIYYDSSRPTGIPERFSGANSGNTATLTISGALAEDEADYYCQVWDSSASVFGGGTHLTVL
Solution: 0.00737 s⁻¹
